# experimental-details: Pharmacokinetics after a single oral dose in Syrian hamsters (serum, HPLC-MS/MS)
# Format: in vivo
# condition-parameters: hamster, serum, po; 60 mg/kg p.o. single dose
attribute-measured: Tmax
Please answer using the number first and the unit second.

Sure, the documented Tmax for O=C(O)c1ccc(F)c(F)c1Nc1ccc(I)cc1Cl [zapnometinib] is 4 h

====

# experimental-details: Pharmacokinetics after a single oral dose in Syrian hamsters (serum, HPLC-MS/MS)
# Format: in vivo
# condition-parameters: Syrian, hamster, serum, po; 15 mg/kg p.o. single dose
attribute-measured: Tmax (h)
Give bare numbers, in h.

Sure, the documented Tmax for O=C(O)c1ccc(F)c(F)c1Nc1ccc(I)cc1Cl [zapnometinib] is 2
